# target: UniProt:P24941
pIC50: −log10 of the molar value.
readout: pIC50

What pIC50 value was documented for this compound, Cc1ccc(NC(=O)c2cccc(C(F)(F)F)c2)cc1CCc1cc(Nc2cnccn2)[nH]n1 ?
< 5.00

====

# target: Src (Homo sapiens (Human), UniProt P12931)
# Sequence (P12931 whole entry, looked up): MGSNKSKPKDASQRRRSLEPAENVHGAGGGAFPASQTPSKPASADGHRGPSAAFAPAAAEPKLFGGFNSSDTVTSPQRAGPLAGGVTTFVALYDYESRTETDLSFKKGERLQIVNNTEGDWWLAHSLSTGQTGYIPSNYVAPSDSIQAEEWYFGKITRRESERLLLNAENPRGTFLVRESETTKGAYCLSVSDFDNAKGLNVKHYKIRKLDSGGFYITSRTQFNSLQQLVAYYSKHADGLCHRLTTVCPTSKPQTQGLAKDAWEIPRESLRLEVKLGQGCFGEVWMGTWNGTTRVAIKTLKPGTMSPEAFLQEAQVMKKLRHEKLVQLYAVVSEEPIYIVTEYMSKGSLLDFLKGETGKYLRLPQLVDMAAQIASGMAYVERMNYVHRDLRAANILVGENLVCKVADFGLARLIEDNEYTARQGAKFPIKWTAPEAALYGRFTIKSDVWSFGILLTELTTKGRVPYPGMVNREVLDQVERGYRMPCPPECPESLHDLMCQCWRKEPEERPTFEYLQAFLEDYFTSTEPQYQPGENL
readout: IC50 (nM)
Answers are plain numbers, in nM.

What IC50 value was documented for this compound, Cc1ccc(NC(=O)c2cccc(C(F)(F)F)c2)cc1CCc1cc(Nc2cnccn2)[nH]n1 [Compound 3] ?
370

====

Consider the following compounds; for each one, report its pIC50.
# System: NF-kB
# assay-info: Gene reporter (GR) assay, NF-kB activation after TNFα in JB6 Cl 41-5a (P+) cells
# Assay type: cell-based, murine
# experimental-setup: Mus musculus, JB6 Cl 41-5a, TNFα 2 ng/ml, non toxic concentrations; read-out: Gene reporter (GR) inhibition IC50
One number for each entry, as −log10 of the molar value.

// worked examples, pIC50 included
# compound, pIC50
data = [
    ("Cc1nc(C#N)cc(Nc2cc(CCc3cc(NC(=O)c4cccc(S(=O)(=O)N(C)C)c4)ccc3C)n[nH]2)n1", 5.65),
    ("CCN1Cc2cnc(Nc3cc(CCc4cc(NC(=O)c5cccc(C(F)(F)F)c5)ccc4C)n[nH]3)cc2C1", 6.45),
    ("O=C(Nc1ccc(F)c(CCc2cc(Nc3cc4c(cn3)CN(CCO)C4)[nH]n2)c1)c1cccc(C(F)(F)F)c1", 5.70),
    ("Cc1ccc(NC(=O)c2ccnc(C(C)(C)C#N)c2)cc1CCc1cc(Nc2cnccn2)[nH]n1", 6.51),
    ("Cc1ccc(NC(=O)c2cc(C(C)(C)C#N)ccn2)cc1CCc1cc(Nc2cnccn2)[nH]n1", 6.49),
    ("Cc1ccc(NC(=O)c2ccnc(C(C)(C)C#N)c2)cc1CCc1cc(Nc2ncccc2C)[nH]n1", 6.31),
    ("Cc1ccc(NC(=O)c2cc(C(F)(F)F)ccc2F)cc1CCc1cc(Nc2cnccn2)[nH]n1", 5.94),
    ("Cc1ccc(NC(=O)c2cccc(S(=O)(=O)C(C)C)c2)cc1CCc1cc(Nc2ncccc2C)[nH]n1", 5.88),
    ("Cc1ccc(NC(=O)c2cccc(S(C)(=O)=O)c2)cc1CCc1cnc(Nc2cnccn2)s1", 6.56),
    ("Cc1ccc(NC(=O)NC2CCCC2)cc1CCc1cc(NC(=O)c2ccc(N3CCN(C)CC3)cc2)[nH]n1", 5.63),
]

Consider the following items and state reported pIC50 for each.
1. Cc1ccc(NC(=O)c2cccc(C(F)(F)F)c2)cc1CCc1cc(NC(=O)c2ccc(F)cc2)[nH]n1
2. Cc1nc(Nc2cc(CCc3ccc(F)c(NC(=O)c4cccc(C(F)(F)F)c4)c3)n[nH]2)cc(N2CCOCC2)n1
3. O=C(Nc1ccc(Cl)c(CCc2cc(Nc3cnccn3)[nH]n2)c1)c1cccc(C(F)(F)F)c1
4. CC(C)(C#N)c1cc(C(=O)Nc2ccc(F)c(CCc3cc(Nc4cnccn4)[nH]n3)c2)ccn1
5. Cc1ccc(NC(=O)c2cccc(C(F)(F)F)c2)cc1CCc1cnc(Nc2cnccn2)s1

6.05
5.61
6.49
6.11
6.37

====

# target: UniProt P06241
# assay-info: Inhibition of FynB-induced Tau(Y18)-phosphorylation in HEK293 cells
# experimental-setup: read-out: Inhibition of FynB-induced Tau(Y18)-phosphorylation IC50; after 6 hours of treatment
readout: IC50 (nM)
One number for each entry, in nM.

What IC50 value was documented for this compound, Cc1ccc(NC(=O)c2cccc(C(F)(F)F)c2)cc1CCc1cc(Nc2cnccn2)[nH]n1 ?
131

====

# assay-info: Pharmacokinetics, systemic routes, rats
# Type: in vivo
# experimental-setup: rat, in vivo, oral route, read-out: Absolute bioavailability
readout: bioavailability

What bioavailability value was documented for this molecule, Cc1ccc(NC(=O)c2cccc(C(F)(F)F)c2)cc1CCc1cc(Nc2cnccn2)[nH]n1 [Compound 3] ?
~6%

====

Consider the following compounds; for each one, report its IC50.
# target: VEGFR2 (Homo sapiens (Human), UniProt P35968)
# Sequence (P35968 20-1356): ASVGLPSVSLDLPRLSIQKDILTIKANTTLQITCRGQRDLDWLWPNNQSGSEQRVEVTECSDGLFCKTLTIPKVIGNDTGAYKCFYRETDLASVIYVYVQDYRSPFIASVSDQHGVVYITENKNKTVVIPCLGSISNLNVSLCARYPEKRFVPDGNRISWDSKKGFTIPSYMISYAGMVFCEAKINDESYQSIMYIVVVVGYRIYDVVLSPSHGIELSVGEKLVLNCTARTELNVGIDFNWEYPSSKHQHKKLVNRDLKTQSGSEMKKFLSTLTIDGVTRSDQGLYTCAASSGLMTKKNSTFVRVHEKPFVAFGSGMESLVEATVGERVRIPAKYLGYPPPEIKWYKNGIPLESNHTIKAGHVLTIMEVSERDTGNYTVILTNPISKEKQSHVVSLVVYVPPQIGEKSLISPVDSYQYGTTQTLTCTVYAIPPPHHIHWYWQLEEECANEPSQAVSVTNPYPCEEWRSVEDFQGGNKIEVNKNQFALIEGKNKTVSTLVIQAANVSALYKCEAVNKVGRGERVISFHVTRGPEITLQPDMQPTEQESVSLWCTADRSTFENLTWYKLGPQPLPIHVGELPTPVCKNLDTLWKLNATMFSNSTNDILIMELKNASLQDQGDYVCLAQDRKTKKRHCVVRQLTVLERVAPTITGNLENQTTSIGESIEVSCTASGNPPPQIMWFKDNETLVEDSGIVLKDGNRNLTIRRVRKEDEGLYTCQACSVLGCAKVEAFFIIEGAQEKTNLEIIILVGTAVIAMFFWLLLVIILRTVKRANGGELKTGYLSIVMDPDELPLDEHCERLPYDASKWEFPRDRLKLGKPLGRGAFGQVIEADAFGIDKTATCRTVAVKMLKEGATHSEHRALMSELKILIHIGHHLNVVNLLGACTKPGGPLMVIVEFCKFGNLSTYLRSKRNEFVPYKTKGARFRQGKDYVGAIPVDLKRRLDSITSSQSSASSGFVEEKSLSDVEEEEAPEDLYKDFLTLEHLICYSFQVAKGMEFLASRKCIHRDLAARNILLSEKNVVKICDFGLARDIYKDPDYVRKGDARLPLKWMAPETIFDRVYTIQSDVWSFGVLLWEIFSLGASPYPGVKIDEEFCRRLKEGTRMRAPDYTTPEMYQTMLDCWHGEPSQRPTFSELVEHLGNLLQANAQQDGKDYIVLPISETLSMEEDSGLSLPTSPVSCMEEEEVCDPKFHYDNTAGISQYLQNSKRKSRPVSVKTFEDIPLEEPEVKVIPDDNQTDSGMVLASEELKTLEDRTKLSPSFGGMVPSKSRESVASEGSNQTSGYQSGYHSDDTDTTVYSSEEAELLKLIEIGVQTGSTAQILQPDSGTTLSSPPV
# assay-info: In vitro VEGFR2 kinase activity assay (Eurofins Cerep)
# Assay type: biochemical
# experimental-setup: read-out: VEGFR2 KINASE INHIBITION IC50
Numbers only, in nM.

# compound, readout, readout-value
records = [
    ("Cc1nc(Nc2cc(CCc3ccc(F)c(NC(=O)c4cccc(C(F)(F)F)c4)c3)n[nH]2)cc(N2CCOCC2)n1", "IC50", 10),
    ("Cc1ccc(NC(=O)c2cccc(C(F)(F)F)c2)cc1CCc1cc(NC(=O)c2ccc(F)cc2)[nH]n1", "IC50", 110),
]

Turning to the following compound.
Requested read-out IC50, target or system VEGFR2 (Homo sapiens (Human), UniProt P35968), entry Cc1cnc(Nc2cc(CCc3cc(NC(=O)c4cccc(C(F)(F)F)c4)ccc3F)n[nH]2)c(C)n1
10

====

Consider the following molecules; for each one, report its First toxic concentration at 24 h.
# Test system: rat primary articular chondrocytes
# assay-info: Toxicity analysis (MTT) in rat primary chondrocytes
# experimental-setup: rat primary chondrocytes, 24 h
One number for each entry, in µM.

// worked examples, First toxic concentration at 24 h included
# compound, readout-value
records = [
    ("Cc1ccc(NC(=O)c2cccc(C(F)(F)F)c2)cc1CCc1cc(NC(=O)c2ccc(F)cc2)[nH]n1", 10),
    ("Cc1cnc(Nc2cc(CCc3cc(NC(=O)c4cccc(C(F)(F)F)c4)ccc3F)n[nH]2)c(C)n1", 10),
    ("Cc1ccc(NC(=O)c2cc(C(F)(F)F)ccc2F)cc1CCc1cc(Nc2cnccn2)[nH]n1", 3),
    ("Cc1nc(C#N)cc(Nc2cc(CCc3cc(NC(=O)c4ccc(CN(C)C)c(C(F)(F)F)c4)ccc3F)n[nH]2)n1", 10),
    ("Cc1ccc(NC(=O)c2cccc(C(F)(F)F)c2)cc1CCc1cnc(Nc2cnccn2)s1", 3),
]

Consider the following items and state reported First toxic concentration at 24 h for each.
1. O=C(Nc1ccc(F)c(CCc2cc(Nc3cnccn3)[nH]n2)c1)c1cccc(C(F)(F)F)c1
2. Cc1ccc(NC(=O)c2cccc(C(F)F)c2)cc1CCc1cc(Nc2cnccn2)[nH]n1

1: 3; 2: 10

Requested read-out First toxic concentration at 24 h, target or system rat primary articular chondrocytes, entry Cc1ccc(NC(=O)c2cccc(S(C)(=O)=O)c2)cc1CCc1cnc(Nc2cnccn2)s1
3

====

Fyn (Homo sapiens (Human), UniProt P06241) data, read-out pIC50
Sequence (P06241 whole entry): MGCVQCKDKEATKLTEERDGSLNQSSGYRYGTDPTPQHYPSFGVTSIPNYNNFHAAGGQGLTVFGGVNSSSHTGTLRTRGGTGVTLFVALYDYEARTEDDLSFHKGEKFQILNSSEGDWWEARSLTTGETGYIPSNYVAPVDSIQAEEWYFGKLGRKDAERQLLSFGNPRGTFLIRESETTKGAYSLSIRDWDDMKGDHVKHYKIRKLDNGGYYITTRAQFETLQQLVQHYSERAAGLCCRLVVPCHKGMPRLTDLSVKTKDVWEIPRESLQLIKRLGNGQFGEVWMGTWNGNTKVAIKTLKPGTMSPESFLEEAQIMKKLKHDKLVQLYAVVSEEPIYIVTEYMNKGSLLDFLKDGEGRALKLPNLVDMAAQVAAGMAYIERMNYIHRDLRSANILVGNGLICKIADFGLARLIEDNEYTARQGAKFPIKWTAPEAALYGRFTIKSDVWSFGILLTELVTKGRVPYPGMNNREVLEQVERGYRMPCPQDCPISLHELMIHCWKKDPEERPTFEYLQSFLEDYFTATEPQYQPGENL
Numbers only, as −log10 of the molar value.

// worked examples, pIC50 included
# compound, target, pIC50
data = [
    ("Cc1nc(CN2C[C@@H](C)O[C@@H](C)C2)cc(Nc2cc(CCc3cc(NC(=O)c4cccc(C(F)(F)F)c4)ccc3F)[nH]n2)n1", "Fyn (Homo sapiens (Human), UniProt P06241)", 8.00),
    ("Cc1nc(C(=O)Nc2ccc(C)c(CCc3cc(Nc4cnccn4)[nH]n3)c2)c(C(F)(F)F)o1", "Fyn (Homo sapiens (Human), UniProt P06241)", 6.95),
    ("CN(C)Cc1ccc(C(=O)Nc2cccc(CCc3cc(NC(=O)c4ccc(N5CCOCC5)cc4)[nH]n3)c2)cc1", "Fyn (Homo sapiens (Human), UniProt P06241)", 8.00),
]

Consider the following items and state reported pIC50 for each.
1. Cc1ccc(NC(=O)c2ccnc(C(C)(C)C#N)c2)cc1CCc1cc(Nc2ncccc2C)[nH]n1
2. Cc1nc(Nc2cc(CCc3cc(NC(=O)c4cccc(C(F)(F)F)c4)ccc3F)n[nH]2)cc(N2CC[C@H](N(C)C)C2)n1
3. Cc1ccc(NC(=O)N2CCC3(CCC3)C2)cc1CCc1cc(Nc2nccnc2C)[nH]n1
4. O=C(Nc1ccc(F)c(CCc2cc(Nc3cnccn3)[nH]n2)c1)c1cccc(C(F)(F)F)c1
5. Cc1cnc(Nc2cc(CCc3cc(NC(=O)c4cccc(C(F)(F)F)c4)ccc3F)n[nH]2)c(C)n1

7.49
8.05
7.74
7.59
7.51

Consider the following items and state reported pIC50 for each.
1. Cc1nc(Nc2cc(CCc3cc(NC(=O)c4cccc(C(F)(F)F)c4)ccc3F)[nH]n2)cc(-c2cnn(CCO)c2)n1
2. Cc1ccc(NC(=O)c2ccnc(C(C)(C)O)c2)cc1CCc1cc(Nc2cnccn2)[nH]n1
3. CC(C)(C#N)c1cc(C(=O)Nc2ccc(F)c(CCc3cc(Nc4cnccn4)[nH]n3)c2)ccn1
4. Cc1ccc(NC(=O)c2ccnc(C(C)(C)C#N)c2)cc1CCc1cnc(Nc2cnccn2)s1
5. Cc1nc(CN2CCOCC2)cc(Nc2cc(CCc3cc(NC(=O)c4cccc(C(F)(F)F)c4)ccc3F)[nH]n2)n1

7.89
8.22
7.68
8.10
7.92
